# System tested: MMP-1 (Homo sapiens, UniProt P03956)
# Sequence (P03956 100-469): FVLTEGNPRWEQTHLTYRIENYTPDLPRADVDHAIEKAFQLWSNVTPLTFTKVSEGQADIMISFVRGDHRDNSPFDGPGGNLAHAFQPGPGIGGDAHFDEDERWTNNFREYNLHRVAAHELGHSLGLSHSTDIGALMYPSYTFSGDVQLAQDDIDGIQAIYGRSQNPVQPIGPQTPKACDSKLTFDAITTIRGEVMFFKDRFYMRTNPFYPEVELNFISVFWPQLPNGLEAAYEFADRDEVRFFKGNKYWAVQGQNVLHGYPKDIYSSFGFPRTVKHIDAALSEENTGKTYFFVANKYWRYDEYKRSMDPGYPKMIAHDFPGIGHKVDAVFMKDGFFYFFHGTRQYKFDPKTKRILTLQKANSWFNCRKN
# Run description: MMP-1 inhibition (thiopeptide or fluorescent peptide substrate)
# Assay type: biochemical
# Condition summary: read-out: MMP-1 IC50
pIC50: −log10 of the molar value. Counter-ions that a name gives are not always drawn.
Use 6 as the dividing line for pIC50, with the line itself on the Condition met side and lower values as Condition not met.

| Compound | Assigned label |
| --- | --- |
| CC#CCOc1ccc(S(=O)(=O)N(CCN2CCOCC2)CC(=O)NO)cc1 [Example 124, Hydrochloride] | Condition not met |
| CC#CCOc1ccc(S(=O)(=O)N(CC(C)C)C(C(=O)NO)C(C)C)cc1 (centres unmarked) | Condition met |
| CC#CCOc1ccc(S(=O)(=O)N(C)C(C(=O)NO)C(C)C)cc1 (centres unmarked) | Condition met |
| CC#CCOc1ccc(S(=O)(=O)NC(C(=O)NO)C(C)(C)SCc2cccnc2)cc1 (centres unmarked) | Condition met |

Problem: Could you please find out whether "CC#CCOc1ccc(S(=O)(=O)N[C@H](CSCCCO)C(=O)NO)cc1" has pIC50 that meets 6 or exceeds it?
Solution: Condition not met

Problem: Could you please find out whether CC#CCOc1ccc(S(=O)(=O)N2CCCN(C(=O)c3ccccc3)CC2C(=O)NO)cc1 (centres unmarked) has pIC50 that meets 6 or exceeds it?
Solution: Condition met

Reference for the values: patent US6716833B2
